The values you see were collected from patent US20100210649A1.

Listed below: IC50 at 72 h values for each entry.
assay.name: in vitro
condition.label: human, CytoTox (uM) WI-38

compound: O=C(O)CCC(=O)NCCCOc1cccc(-n2ncc(Br)c(Br)c2=O)c1
qualifier: >
IC50 at 72 h [µM]: 10
--
compound: O=c1c(Cl)c(Cl)cnn1-c1ccccc1
qualifier: =
IC50 at 72 h [µM]: 6.93
--
compound: COCCOc1cccc(-n2ncc(Br)c(Br)c2=O)c1
qualifier: =
IC50 at 72 h [µM]: 2.33
--
compound: O=c1c(Cl)c(Cl)cnn1-c1ccc(C(F)(F)F)cc1
qualifier: >
IC50 at 72 h [µM]: 10
--
compound: Cc1nc2cc(-n3ncc(Cl)c(Cl)c3=O)ccc2s1
qualifier: >
IC50 at 72 h [µM]: 10
--
compound: CCc1cccc(-n2ncc(Cl)c(Cl)c2=O)c1
qualifier: =
IC50 at 72 h [µM]: 6.44
--
compound: COc1nn(-c2cccc(C)c2)c(=O)c(Cl)c1Cl
qualifier: =
IC50 at 72 h [µM]: 7.52
--
compound: Cc1ccc(-n2ncc(Cl)c(Cl)c2=O)cc1Cl
qualifier: >
IC50 at 72 h [µM]: 10
--
compound: Cc1cc(-n2ncc(Cl)c(Cl)c2=O)ccc1Br
qualifier: >
IC50 at 72 h [µM]: 10
--
compound: Cc1cccc(-n2nc(OCCCNC(=O)CCC(=O)O)c(Cl)c(Cl)c2=O)c1
qualifier: >
IC50 at 72 h [µM]: 10
--
compound: O=c1c(Cl)c(Cl)cnn1-c1cccc(C(F)(F)F)c1
qualifier: =
IC50 at 72 h [µM]: 3.42
--
compound: Cc1cccc(-n2ncc(Cl)c(Cl)c2=O)c1C
qualifier: =
IC50 at 72 h [µM]: 7.35
--
compound: NCCCOc1cccc(-n2ncc(Br)c(Br)c2=O)c1
qualifier: =
IC50 at 72 h [µM]: 4.53
--
compound: CN/N=C1\C=NN(c2ccc(C)cc2)C(=O)C1Cl (stereo not shown)
qualifier: >
IC50 at 72 h [µM]: 10
--
compound: CCOc1cnn(-c2cccc(C)c2)c(=O)c1Cl
qualifier: >
IC50 at 72 h [µM]: 10
--
compound: Cc1ccc(-n2ncc(Cl)c(Cl)c2=O)cc1C
qualifier: =
IC50 at 72 h [µM]: 7.02
--
compound: Cc1cccc(-n2ncc(I)c(I)c2=O)c1
qualifier: =
IC50 at 72 h [µM]: 5.51
--
compound: Cc1ccc(-n2ncc(Cl)c(Cl)c2=O)cc1
qualifier: =
IC50 at 72 h [µM]: 6.43
--
compound: O=c1c(Cl)c(Cl)cnn1-c1c(Cl)cc(C(F)(F)F)cc1Cl
qualifier: >
IC50 at 72 h [µM]: 10
--
compound: O=c1c(Cl)c(Cl)cnn1-c1ccc2c(c1)CCC2
qualifier: =
IC50 at 72 h [µM]: 5.37
--
compound: O=c1c(Cl)c(Cl)cnn1Cc1ccccc1
qualifier: >
IC50 at 72 h [µM]: 10
--
compound: O=c1c(Br)c(SCc2ccccc2)cnn1-c1ccccc1
qualifier: >
IC50 at 72 h [µM]: 10
--
compound: Cc1cc(C)cc(-n2ncc(Cl)c(Cl)c2=O)c1
qualifier: =
IC50 at 72 h [µM]: 6.78
--
compound: COc1cccc(-n2ncc(Cl)c(Cl)c2=O)c1
qualifier: =
IC50 at 72 h [µM]: 3.91
--
compound: O=c1c(Cl)c(SCc2ccccc2)cnn1-c1ccccc1
qualifier: >
IC50 at 72 h [µM]: 10
--
compound: N/N=C1\C=NN(c2ccccc2)C(=O)C1Cl (stereo not shown)
qualifier: >
IC50 at 72 h [µM]: 10
--
compound: Cc1cccc(-n2ncc(N=[N+]=[N-])c(Cl)c2=O)c1
qualifier: >
IC50 at 72 h [µM]: 10
--
compound: O=c1c(Cl)c(Cl)cnn1-c1ccc2c(c1)OCCO2
qualifier: =
IC50 at 72 h [µM]: 3.96
--
compound: CCN(CC)c1cnn(-c2cccc(C)c2)c(=O)c1Cl
qualifier: >
IC50 at 72 h [µM]: 10
--
compound: O=c1c(Br)c(Br)cnn1-c1ccccn1
qualifier: =
IC50 at 72 h [µM]: 0.89
--
compound: CCN(CC)c1c(Cl)cnn(-c2cccc(C)c2)c1=O
qualifier: >
IC50 at 72 h [µM]: 10

###

Each item that follows carries a reported inhibition at 10 µM.
Tested on: H2030
assay.name: Non Small Cell Lung Cancer proliferation assay (Alamar Blue reduction), H2030
Format: cell-based, human
condition.label: Homo sapiens, NCI-H2030; primary screening; 10 μM compound in 1% DMSO (v/v); read-out: percentage inhibition H2030

molecule: O=c1c(Cl)c(Cl)c(Cl)nn1-c1ccc(Br)cc1
inhibition at 10 µM: -8%

molecule: Cc1ccc(-n2nc(C#N)c(-c3ccccc3)c(C#N)c2=O)cc1
inhibition at 10 µM: -2%

molecule: CCCOc1cnn(-c2ccccc2)c(=O)c1Cl
inhibition at 10 µM: 8%

molecule: O=c1ccc(Cl)nn1-c1cccc(Br)c1
inhibition at 10 µM: -11%

molecule: CCOC(=O)C(C)Oc1ccc(=O)n(-c2ccccc2)n1 (stereo not drawn)
inhibition at 10 µM: 3%

molecule: CCOc1c(Cl)cnn(-c2ccccc2)c1=O
inhibition at 10 µM: 66%

molecule: O=C(COc1cnn(-c2ccccc2)c(=O)c1Cl)c1ccc(Cl)cc1
inhibition at 10 µM: -9%

molecule: O=c1c(Cl)c(Cl)cnn1-c1cccc(C(F)(F)F)c1
inhibition at 10 µM: -3%

molecule: CC(=O)N(C(C)=O)c1c(Cl)cnn(-c2ccccc2)c1=O
inhibition at 10 µM: 4%

###

System: H1650
assay.name: Non Small Cell Lung Cancer proliferation assay (Alamar Blue reduction), H1650
Format: cell-based, human
condition.label: Homo sapiens, NCI-H1650; primary screening; 10 μM compound in 1% DMSO (v/v); read-out: percentage inhibition H1650
Method: These cells have a doubling time of 1-2 days. All cell types are adherent and grow in colonies. The cells should be kept at a density between 50,000 cells/mL -500,000 cells/mL to provide for optimum growth and adequate nutrition. […] After drug treatment, cytotoxicity is measured by Alamar Blue reduction. […] The final step in the assay is to measure the amount of Alamar Blue reduction. […] The Alamar Blue fluorescence is measured at an excitation of 530 nm and emission of 590 nm. […]
Label rule, in plain words: inhibition at 10 µM of 10% and up is met, under 10% is not met.

compound: N=c1c(-c2nc3ccccc3[nH]2)cc(C(=O)c2ccco2)nn1-c1ccccc1
class.label: met
//
compound: CCOC(=O)C(C)Oc1ccc(=O)n(-c2ccccc2)n1 (centres unmarked)
class.label: met
//
compound: COc1cnn(-c2cccc(C(F)(F)F)c2)c(=O)c1Cl
class.label: met
//
compound: O=c1c(Cl)c(Cl)cnn1-c1ccc(Cl)cc1
class.label: not met
//
compound: COc1ccc(-n2nc(-n3cnc4ccccc43)c(C)c(C#N)c2=O)cc1
class.label: met

###

Test system: H3255
assay.name: Non Small Cell Lung Cancer proliferation assay (Alamar Blue reduction), H3255
Assay type: cell-based, human
condition.label: Homo sapiens, NCI-H3255, 48 h, H3255; 12 point doubling dilution 10 uM to 5 nM; 48 h treatment, alamar blue additional 48 h; read-out: IC50 H3255
pIC50: −log10 of the molar value.

chemical.smiles: O=C(Nc1ccc(Cl)cc1)c1ccc([N+](=O)[O-])o1
qualifier: =
pIC50: 5.75
--
chemical.smiles: CCCCc1cccc(-n2ncc(Cl)c(Cl)c2=O)c1
qualifier: =
pIC50: 5.08
--
chemical.smiles: Cc1cccc(-n2ncc(Cl)c(Cl)c2=O)c1
qualifier: =
pIC50: 6.06
--
chemical.smiles: O=c1c(Br)c(Br)cnn1-c1ccccn1
qualifier: =
pIC50: 6.35
--
chemical.smiles: Cc1ccc(NC(=O)c2ccc([N+](=O)[O-])o2)cc1
qualifier: =
pIC50: 5.57
--
chemical.smiles: CCc1cccc(-n2ncc(Cl)c(Cl)c2=O)c1
qualifier: =
pIC50: 5.82
--
chemical.smiles: Cc1cccc(-n2ncc(I)c(I)c2=O)c1
qualifier: =
pIC50: 5.67
--
chemical.smiles: Cc1cc(C)cc(-n2ncc(Cl)c(Cl)c2=O)c1
qualifier: =
pIC50: 5.87
--
chemical.smiles: O=c1c(Cl)c(Cl)cnn1-c1cccc(C(F)(F)F)c1
qualifier: =
pIC50: 6.18
--
chemical.smiles: O=c1c(Br)c(Br)cnn1-c1cccc(C(F)(F)F)c1
qualifier: =
pIC50: 5.79
--
chemical.smiles: Cc1ccc(-n2ncc(Cl)c(Cl)c2=O)cc1
qualifier: =
pIC50: 5.82
--
chemical.smiles: Cc1cccc(NC(=O)c2ccc([N+](=O)[O-])o2)c1
qualifier: =
pIC50: 5.62
--
chemical.smiles: Cc1nc2cc(-n3ncc(Cl)c(Cl)c3=O)ccc2s1
qualifier: <
pIC50: 5.00
--
chemical.smiles: O=C(Nc1ccc(F)c(Cl)c1)c1ccc([N+](=O)[O-])o1
qualifier: <
pIC50: 5.00
--
chemical.smiles: O=c1c(Cl)c(Cl)cnn1-c1ccc(Cl)cc1Cl
qualifier: =
pIC50: 5.06
--
chemical.smiles: COc1nn(-c2cccc(C)c2)c(=O)c(Cl)c1Cl
qualifier: =
pIC50: 5.62
--
chemical.smiles: O=c1c(Cl)c(Cl)cnn1-c1ccc2c(c1)OCCO2
qualifier: =
pIC50: 5.91
--
chemical.smiles: COCCOc1cccc(-n2ncc(Br)c(Br)c2=O)c1
qualifier: =
pIC50: 6.15
--
chemical.smiles: Cc1cc(-n2ncc(Cl)c(Cl)c2=O)ccc1Cl
qualifier: <
pIC50: 5.00
--
chemical.smiles: COc1cccc(-n2ncc(Cl)c(Cl)c2=O)c1
qualifier: =
pIC50: 5.92
--
chemical.smiles: Cc1ccc(-n2ncc(Cl)c(Cl)c2=O)cc1Cl
qualifier: <
pIC50: 5.00
--
chemical.smiles: Cc1cc(-n2ncc(Cl)c(Cl)c2=O)ccc1Br
qualifier: <
pIC50: 5.00
--
chemical.smiles: Cc1ccc(-n2ncc(Cl)c(Cl)c2=O)cc1C
qualifier: =
pIC50: 5.70
